PROCEDURE_TEXT: Half-life period of orally administered compound (30 mg/kg) in rat no.5 belonging to phenotype PM (poor metabolizer)
Type: ADME, organism-based
CONDITION_PARAMETERS: in vivo, po
MEASURED_ENDPOINT: half-life (h)
Express your answer in h, writing the number without its unit.

Return reported half-life; argument: COc1cc2ncnc(N3CCN(C(=O)Nc4ccc(C#N)cc4)CC3)c2cc1OC
5.25

====

PROCEDURE_TEXT: Volume of distribution at steady state was determined after administering 1 mg/kg of compound intravenously in rat no.11 belonging to the phenotype EM (poor metaboliser)
Format: ADME, organism-based
Set-up: dose 1 mg/kg, route intravenous
CONDITION_PARAMETERS: in vivo, iv, read-out: Vdss
MEASURED_ENDPOINT: Vd (L/kg)
Express your answer in L/kg, writing the number without its unit.

Return reported Vd; argument: COCCOc1cc2c(N3CCN(C(=O)Nc4ccc(C#N)cc4)CC3)ncnc2cc1OC
0.286

Where do these numbers come from? They come from ChEMBL document CHEMBL1145889.
